Assay: Cmax in Lewis rat plasma at 10 mg/kg, po
Format: ADME, organism-based
Set-up: dose 10 mg/kg, route oral
recordedEndpoint: Cmax (µM)

Look over these answered cases.
Cc1cnc([C@]2(CNC(=O)c3cc4cc(Cl)ccc4o3)NC(=O)NC2=O)n1C    18
Cc1cnc([C@]2(CNC(=O)c3cc4cc(C(F)(F)F)ccc4o3)NC(=O)NC2=O)n1C    11
CCn1ccnc1[C@]1(CNC(=O)c2cc3cc(C(F)(F)F)ccc3o2)NC(=O)NC1=O    18

A = O=C1NC(=O)[C@](CNC(=O)c2cc3cc(Cl)ccc3o2)(c2nccs2)N1
B = CCn1ccnc1[C@]1(CNC(=O)c2cc3cc(Cl)ccc3o2)NC(=O)NC1=O
C = Cn1ccnc1[C@]1(CNC(=O)c2cc3cc(Cl)ccc3o2)NC(=O)NC1=O
Prompt: List by increasing Cmax. State the ranking by listing the labels in the requested order.
Completion: C, B, A
(C: 11 µM, B: 23 µM, A: 33 µM)

====

Assay: Ratio of Cmax in Lewis rat plasma to IC50 for human ADAMTS5 in presence of Lewis rat plasma
Type: ADME
Details: in vivo
recordedEndpoint: Ratio

Some solved entries appear below for comparison.
Cn1ccnc1[C@]1(CNC(=O)c2cc3cc(C(F)(F)F)ccc3o2)NC(=O)NC1=O    220
CCn1ccnc1[C@]1(CNC(=O)c2cc3cc(Cl)ccc3o2)NC(=O)NC1=O    160
Cc1cnc([C@]2(CNC(=O)c3cc4cc(Cl)ccc4o3)NC(=O)NC2=O)n1C    160
Cn1ccnc1[C@]1(CNC(=O)c2cc3cc(Cl)ccc3o2)NC(=O)NC1=O    139

1 = Cc1cnc([C@]2(CNC(=O)c3cc4cc(C(F)(F)F)ccc4o3)NC(=O)NC2=O)n1C
2 = CCn1ccnc1[C@]1(CNC(=O)c2cc3cc(C(F)(F)F)ccc3o2)NC(=O)NC1=O
Prompt: Lowest Ratio? choose 1 or 2 Reply briefly: the label of your chosen item.
Completion: 1

====

Species on record: Homo sapiens
Assay: Selectivity ratio of IC50 for human MMP3 to IC50 for human ADAMTS4
recordedEndpoint: Ratio IC50

O=C1NC(=O)[C@](CNC(=O)c2cc3cc(C(F)(F)F)ccc3o2)(C2CC2)N1    > 1000

Prompt: // Ratio IC50 lookup, key: Cn1ccnc1[C@]1(CNC(=O)c2cc3cc(C(F)(F)F)ccc3o2)NC(=O)NC1=O
Completion: > 1000

Prompt: Now give it for Cc1cnc([C@]2(CNC(=O)c3cc4cc(C(F)(F)F)ccc4o3)NC(=O)NC2=O)n1C too.
Completion: > 1000

Prompt: Here is the next compound: Cn1ccnc1[C@]1(CNC(=O)c2cc3cc(Cl)ccc3o2)NC(=O)NC1=O
Completion: > 1000

Prompt: Do the same for CCn1ccnc1[C@]1(CNC(=O)c2cc3cc(Cl)ccc3o2)NC(=O)NC1=O please
Completion: > 1000

Prompt: Item: CCn1ccnc1[C@]1(CNC(=O)c2cc3cc(C(F)(F)F)ccc3o2)NC(=O)NC1=O
Completion: > 1000

Prompt: Cc1cnc([C@]2(CNC(=O)c3cc4cc(Cl)ccc4o3)NC(=O)NC2=O)n1C , same question.
Completion: > 1000

====

Assay: Plasma concentration in Lewis rat model of MIA at 10 mg/kg, po bid administered post 3 days MIA induction measured after 4 hrs of last dosage on day 7
Assay type: ADME, organism-based
recordedEndpoint: concentration at 4 h (nM)

Recorded concentration at 4 h, per entry:
CCn1ccnc1[C@]1(CNC(=O)c2cc3cc(C(F)(F)F)ccc3o2)NC(=O)NC1=O    930
Cn1ccnc1[C@]1(CNC(=O)c2cc3cc(C(F)(F)F)ccc3o2)NC(=O)NC1=O    510

a = O=C1NC(=O)[C@](CNC(=O)c2cc3cc(Cl)ccc3o2)(c2nccs2)N1
b = Cc1cnc([C@]2(CNC(=O)c3cc4cc(C(F)(F)F)ccc4o3)NC(=O)NC2=O)n1C
Prompt: Task for the reader: decide whether a or b has the larger concentration at 4 h. Please reply using the label of the selected record.
Completion: a
